- protocol.notes: Tissue distribution, mouse
- Assay type: in vivo
- recorded.conditions: kidney, dose 10 mg/kg, read-out: Kidney 2
readout: concentration at 2 h (ng/g)
Express your answer in ng/g, writing the number without its unit.

Ask: Please indicate concentration at 2 h recorded for FC(F)(F)c1cc2c(NC3CCCc4ccccc43)ncnc2[nH]1 (stereo not shown)
Reply: 893

====

- protocol.notes: Solubility in 1× PBS
- Assay type: physicochemical
- recorded.conditions: aqueous buffer
Catalogue of solubility values
Express your answer in µM, writing the number without its unit.

[[record]]
molecule = "CO[C@H]1COc2ccccc2[C@@H]1Nc1ncnc2[nH]c(C(F)(F)F)cc12 [Compound 104]"
reported_result = 1.31


Kindly review the next molecule as well.
Ask: Please indicate solubility recorded for C[C@H]1CCc2ccccc2[C@H]1Nc1ncnc2[nH]c(C(F)(F)F)cc12 [Compound 101]
Reply: 7.79

====

- Test system: HeLa MKYP cells
- protocol.notes: Toxicity / cell death measured by DAPI staining (take-up)
- Assay type: cell-based
- recorded.conditions: Table 2; 50 μM
Catalogue of Toxicity (% positive for DAPI takeup @ 50 μM) values
Express your answer in %, writing the number without its unit.

Below: 8 compounds and their reported Toxicity (% positive for DAPI takeup @ 50 μM).
[[record]]
compound = "FC(F)(F)c1cc2c(NCc3ccccc3)ncnc2[nH]1 [Compound 9]"
readout_units = "%"
reported_result = 50.4

[[record]]
compound = "FC(F)(F)c1cc2c(NC3CCc4ccccc43)ncnc2[nH]1 (stereo not shown) [Compound 18]"
readout_units = "%"
reported_result = 1.7

[[record]]
compound = "COc1ccc2c(c1)CCCC2Nc1ncnc2[nH]c(C(F)(F)F)cc12 (stereo not shown) [Compound 14]"
readout_units = "%"
reported_result = 95.5

[[record]]
compound = "FC(F)(F)c1cc2c(NC3CCc4ccccc43)ncnc2[nH]1 (stereo not shown) [Compound 17]"
readout_units = "%"
reported_result = 2.3

[[record]]
compound = "FC(F)(F)c1cc2c(NC3CCCc4ccccc43)ncnc2[nH]1 (stereo not shown) [Compound 16]"
readout_units = "%"
reported_result = 4.5

[[record]]
compound = "CC(C)(Nc1ncnc2[nH]c(C(F)(F)F)cc12)c1ccccc1 [Compound 10]"
readout_units = "%"
reported_result = 5.6

[[record]]
compound = "FC(F)(F)c1cc2c(NC3CCCc4ccccc43)ncnc2[nH]1 (stereo not shown) [Compound 15]"
readout_units = "%"
reported_result = 2.1

[[record]]
compound = "FC(F)(F)c1cc2c(NC3(c4ccccc4)CC3)ncnc2[nH]1 [Compound 11]"
readout_units = "%"
reported_result = 80.5


Ask: // output Toxicity (% positive for DAPI takeup @ 50 μM); input FC(F)(F)c1cc2c(NC3COc4ccccc43)ncnc2[nH]1 (stereo not shown) [Compound 13] ; system HeLa MKYP cells
Reply: 39.7

Ask: // output Toxicity (% positive for DAPI takeup @ 50 μM); input CC(Nc1ncnc2[nH]c(C(F)(F)F)cc12)c1ccccc1 (stereo not shown) [Compound 12] ; system HeLa MKYP cells
Reply: 2.4

====

Catalogue of pEC50 values
- Tested on: HeLa MKYP cells
- protocol.notes: Human mitophagy assay (HeLa MKYP, mtKeima FACS, FCCP/oligomycin)
- Assay type: cell-based
- recorded.conditions: Homo sapiens, HeLa, Table 3 Supplement B; read-out: Mitophagy EC50 (HeLa mKeima assay)
Scale note: pEC50 = -log10(concentration in M).

Below: 6 compounds and their reported pEC50.
[[record]]
compound = "N#Cc1cccc2c1CCCC2Nc1ncnc2[nH]c(C(F)(F)F)cc12 (stereo not drawn) [Compound 92]"
reported_result = 5.53

[[record]]
compound = "CN(C)[C@H]1CCc2ccccc2[C@@H]1Nc1ncnc2[nH]c(C(F)(F)F)cc12 [Compound 108]"
reported_result = 6.09

[[record]]
compound = "O[C@@H]1Cc2ccccc2[C@@H]1Nc1ncnc2[nH]c(C(F)(F)F)cc12 [Compound 84]"
reported_result = 5.04

[[record]]
compound = "O[C@H]1Cc2ccccc2[C@@H]1Nc1ncnc2[nH]c(C(F)(F)F)cc12 [Compound 90]"
reported_result = 4.73

[[record]]
compound = "C[C@H]1CCc2ccccc2[C@H]1Nc1ncnc2[nH]c(C(F)(F)F)cc12 [Compound 85]"
reported_result = 5.97

[[record]]
compound = "O[C@@H]1Cc2ccccc2[C@H]1Nc1ncnc2[nH]c(C(F)(F)F)cc12 [Compound 88]"
reported_result = 4.82


Ask: Please indicate pEC50 recorded for Fc1ccc2c(c1)CCCC2Nc1ncnc2[nH]c(C(F)(F)F)cc12 (stereo not drawn) [Compound 109]
Reply: 5.97

Ask: Please indicate pEC50 recorded for CC(=O)N1CCC(Nc2ncnc3[nH]c(C(F)(F)F)cc23)c2ccccc21 (stereo not drawn) [Compound 93]
Reply: 4.76

Ask: Please indicate pEC50 recorded for FC(F)(F)c1cc2c(N[C@@H]3CCOc4ccccc43)ncnc2[nH]1 [Compound 37]
Reply: 5.20
